- Test system: NCI-H727
- test_summary: relative viability (nuclei count vs DMSO), 5 days (fraction); higher = more cells survive
- test_parameters: first compound 15.81 µM
Rule: relative viability below 0.6 gives yes. Equal to or above 0.6 gives no.

As a guide, the following entries are already answered.
| compound | group |
| --- | --- |
| O=C(O)CCCCC(CCSCc1ccccc1)SCc1ccccc1 (configuration not stated) [CPI-613] + NC(=O)Nc1cc(-c2cccc(F)c2)sc1C(=O)N[C@H]1CCCNC1 [AZD7762] (partner 0.2 µM) | yes |
| O=C(O)CCCCC(CCSCc1ccccc1)SCc1ccccc1 (configuration not stated) [CPI-613] + C[C@@H](Oc1cc(-c2cnn(C3CCNCC3)c2)cnc1N)c1c(Cl)ccc(F)c1Cl [Crizotinib] (partner 1 µM) | no |
| O=C(O)CCCCC(CCSCc1ccccc1)SCc1ccccc1 (configuration not stated) [CPI-613] + Cc1nc(NC(=O)N2CCC[C@H]2C(N)=O)sc1-c1ccnc(C(C)(C)C(F)(F)F)c1 [Alpelisib] (partner 2 µM) | yes |
| O=C(O)CCCCC(CCSCc1ccccc1)SCc1ccccc1 (configuration not stated) [CPI-613] + COc1cccc2cc(-c3nc([C@H]4CC[C@H](C(=O)O)CC4)n4ncnc(N)c34)[nH]c12 [OSI-027] (partner 0.5 µM) | no |

Shifting focus to the compound that follows.
Enquiry: Determine if O=C(O)CCCCC(CCSCc1ccccc1)SCc1ccccc1 (configuration not stated) [CPI-613] + O=C(CCCCCCC(=O)Nc1ccccc1)NO [Vorinostat] (partner 1 µM) shows relative viability strictly lower than 0.6.
Return: no

###

- Tested on: NCI-H520
- test_summary: relative viability (nuclei count vs DMSO), 5 days (fraction); higher = more cells survive
- test_parameters: first compound 0.5 µM
metric_name: relative viability
I only need the number, thanks.

The following compounds have reported results that may help.
| compound | relative viability |
| --- | --- |
| Nc1ccn([C@@H]2O[C@H](CO)[C@@H](O)[C@@H]2O)c(=O)n1 [Cytarabine] + O=C(c1cc(Cc2n[nH]c(=O)c3ccccc23)ccc1F)N1CCN(C(=O)C2CC2)CC1 [Olaparib] (partner 8 µM) | 0.239 |
| COc1cc2nccc(Oc3ccc(NC(=O)Nc4cc(C)on4)c(Cl)c3)c2cc1OC [Tivozanib] + Nc1ncn([C@H]2C[C@H](O)[C@@H](CO)O2)c(=O)n1 [Decitabine] (partner 2 µM) | 0.351 |
| COc1cc2nccc(Oc3ccc(NC(=O)Nc4cc(C)on4)c(Cl)c3)c2cc1OC [Tivozanib] + COc1cccc2cc(-c3nc([C@H]4CC[C@H](C(=O)O)CC4)n4ncnc(N)c34)[nH]c12 [OSI-027] (partner 0.5 µM) | 0.313 |

Attention now turns to another entry.
Enquiry: Suppose we examine the compound COc1cc2nccc(Oc3ccc(NC(=O)Nc4cc(C)on4)c(Cl)c3)c2cc1OC [Tivozanib] + CCNC(=O)c1noc(-c2cc(C(C)C)c(O)cc2O)c1-c1ccc(CN2CCOCC2)cc1 [Luminespib] (partner 0.01 µM) ; what relative viability value has been reported?
Return: 0.245

###

- Test system: NCI-H2023
- test_summary: relative viability (nuclei count vs DMSO), 5 days (fraction); higher = more cells survive
- test_parameters: first compound 0.05 µM
# relative viability per record follows
I only need the number, thanks.

The following molecules have reported results that may help.
| molecule | observed_value |
| --- | --- |
| COc1cc2nccc(Oc3ccc(NC(=O)Nc4cc(C)on4)c(Cl)c3)c2cc1OC [Tivozanib] + CC(C)C[C@H](NC(=O)[C@H](Cc1ccccc1)NC(=O)c1cnccn1)B(O)O [Bortezomib] (partner 0.002 µM) | 1 |
| COc1cc2nccc(Oc3ccc(NC(=O)Nc4cc(C)on4)c(Cl)c3)c2cc1OC [Tivozanib] + O=C(CCCCCCC(=O)Nc1ccccc1)NO [Vorinostat] (partner 1 µM) | 0.703 |

Attention now turns to another entry.
Enquiry: Suppose we examine the molecule COc1cc2nccc(Oc3ccc(NC(=O)Nc4cc(C)on4)c(Cl)c3)c2cc1OC [Tivozanib] + CS(=O)(=O)CCNCc1ccc(-c2ccc3ncnc(Nc4ccc(OCc5cccc(F)c5)c(Cl)c4)c3c2)o1 [Lapatinib] (partner 2 µM) ; what relative viability value has been reported?
Return: 0.878
